# assay name: Maximum time taken by the drug to reach peak concentration after peroral administration of 5.0 mg/kg of drug in male Dawley rats
# Type: ADME, organism-based
# Design: dose 5 mg/kg, route oral
# condition description: Sprague-Dawley, rat, in vivo, po
outcome measure: Tmax (min)

Take a look at these entries with their results.
| record smiles | result unit | observed value |
| --- | --- | --- |
| N#Cc1ccc(S(=O)(=O)Nc2cccc([C@H](c3c(O)oc4c(c3=O)CCCCCC4)C3CC3)c2)cc1 | min | 15 |
| Cn1cnc(S(=O)(=O)Nc2cccc([C@@H](c3c(O)c4c(oc3=O)CCCCCC4)C3CC3)c2)c1 | min | 15 |

a. O=c1c2c(oc(O)c1[C@H](c1cccc(NS(=O)(=O)c3cccc4cccnc34)c1)C1CC1)CCCCCC2
b. N#Cc1ccc(S(=O)(=O)Nc2cccc([C@@H](c3c(O)oc4c(c3=O)CCCCCC4)C3CC3)c2)cc1
I would appreciate it if you could say which entry, a or b , has the lower Tmax value. Selection: enter the item's label.
a

----------
Property: CC50; scope: individual compounds
# assay name: Median cell culture toxic dose was evaluated against H9 cell line
# Format: ADME, cell-based
# condition description: human, H9 cells; read-out: CCTD50

| compound | CC50 |
| --- | --- |
| O=c1c2c(oc(O)c1C(c1cccc(NS(=O)(=O)c3cccc(Cl)c3)c1)C1CC1)CCCCCC2 (stereo not drawn) | > 30 µM |
| Cc1cccc(S(=O)(=O)Nc2cccc(C(c3c(O)c4c(oc3=O)CCCCCC4)C3CC3)c2)c1 (stereo not drawn) | > 30 µM |
| CC(C)CC(c1cccc(NS(=O)(=O)c2ccc(C#N)cc2)c1)c1c(O)c2c(oc1=O)CCCCCC2 (stereo not drawn) | > 30 µM |
| CCC(c1cccc(NS(=O)(=O)c2ccc(C#N)cc2)c1)c1c(O)c2c(oc1=O)CCCCCC2 (stereo not drawn) | > 30 µM |
| CC(C)C(c1cccc(NS(=O)(=O)c2ccc(F)cc2)c1)c1c(O)c2c(oc1=O)CCCCCC2 (stereo not drawn) | > 30 µM |

Quickly give me recorded CC50 for O=c1c2c(oc(O)c1C(c1cccc(NS(=O)(=O)c3c(Cl)cccc3Cl)c1)C1CC1)CCCCCC2 (stereo not drawn)
> 30 µM

Quickly give me recorded CC50 for O=c1c2c(oc(O)c1C(c1cccc(NS(=O)(=O)c3ccc(Cl)c(Cl)c3Cl)c1)C1CC1)CCCCCC2 (stereo not drawn)
> 30 µM

Quickly give me recorded CC50 for O=c1c2c(oc(O)c1C(c1cccc(NS(=O)(=O)c3ccccc3C(F)(F)F)c1)C1CC1)CCCCCC2 (stereo not drawn)
> 30 µM

----------
# assay name: Total plasma clearance value was obtained after intravenous administration of 2.6 mg/kg of drug in male Dawley rats
# Format: ADME, organism-based
# Parameters: dose 2.6 mg/kg, route intravenous
# condition description: Sprague-Dawley, rat
outcome measure: clearance (mL/min/kg)
Respond with the bare value in mL/min/kg.

Quickly give me recorded clearance for N#Cc1ccc(S(=O)(=O)Nc2cccc([C@H](c3c(O)oc4c(c3=O)CCCCCC4)C3CC3)c2)cc1
0.933

----------
# System: Human immunodeficiency virus 1
# assay name: Antiviral activity in HIV-1 infected H9 cells
# Assay type: functional
# condition description: Human immunodeficiency virus 1, H9; read-out: ED50 (the source's name)
outcome measure: EC50 (µM)

| molecule | EC50 [µM] |
| --- | --- |
| CCC(c1cccc(NS(=O)(=O)c2ccc(Cl)cc2)c1)c1c(O)c2c(oc1=O)CCCCCC2 (configuration not stated) | 4.7 |

P. O=c1c2c(oc(O)c1[C@H](c1cccc(NS(=O)(=O)c3ccc(F)cc3)c1)C1CC1)CCCCCC2
Q. O=c1c2c(oc(O)c1C(c1cccc(NS(=O)(=O)c3cccc(C(F)(F)F)c3)c1)C1CC1)CCCCCC2 (configuration not stated)
# argmax over EC50 for candidates P and Q Selection: enter the item's label.
Q

Each recorded value in this set is attributed to ChEMBL document CHEMBL1129987.
